system: 996289-038-R-J1-PDC spheroid viability; test: Anticancer human tumor 996289-038-R-J1-PDC patient-derived colon adenocarcinoma cell line growth inhibition [PI3K]; conditions: second compound 3.16 µM; first compound 0.316 µM; stronger effect = lower value; spheroids with HUVEC and MSC
MEASUREMENT TYPE: viability, T/C (%)
Answer format: numeric, % implied, no suffix.

These solved cases illustrate the format of a correct answer.
CCN1CCN(Cc2ccc(Nc3ncc(F)c(-c4cc(F)c5nc(C)n(C(C)C)c5c4)n3)nc2)CC1 + Cc1nc(NC(=O)N2CCCC2C(N)=O)sc1-c1ccnc(C(C)(C)C(F)(F)F)c1; 43.7
Cn1nccc1Nc1nccc(-c2ccn(C(CO)c3ccc(Cl)c(F)c3)c(=O)c2)n1 (stereo not drawn) + CC(Nc1ncnc2nc[nH]c12)c1cc2cccc(Cl)c2c(=O)n1-c1ccccc1; 99.7

Let us examine a further case.
INPUT: Look up 996289-038-R-J1-PDC spheroid viability data: viability, T/C of CC1(C)CCC(CN2CCN(c3ccc(C(=O)NS(=O)(=O)c4ccc(NCC5CCOCC5)c([N+](=O)[O-])c4)c(Oc4cnc5[nH]ccc5c4)c3)CC2)=C(c2ccc(Cl)cc2)C1 + Cc1nc(NC(=O)N2CCCC2C(N)=O)sc1-c1ccnc(C(C)(C)C(F)(F)F)c1 , then report it.
OUTPUT: 60.4

###

test system: 996289-038-R-J1-PDC spheroid viability; experiment: Anticancer human tumor 996289-038-R-J1-PDC cell line growth inhibition [PI3K]; conditions: curve of first compound; second compound 0.00316 µM; spheroids with HUVEC and MSC;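 also: spheroids exposed to compounds for seven days before viability read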
# Lookup of reported IC50 keyed by entry

These solved cases illustrate the format of a correct answer.
C[C@@H](NC(=O)c1ncnc(N)c1Cl)c1ncc(C(=O)Nc2cc(C(F)(F)F)c(Cl)cn2)s1 + CC(Nc1ccc2c(c1)OCCn1cc(N3C(=O)OCC3C(F)F)nc1-2)C(N)=O; > 10 µM
C#Cc1c(F)ccc2cc(O)cc(-c3ncc4c(N5CC6CCC(C5)N6)nc(OCC56CCCN5CC(F)C6)nc4c3F)c12 (configuration not stated) + CC(Nc1ccc2c(c1)OCCn1cc(N3C(=O)OCC3C(F)F)nc1-2)C(N)=O; 1.45 µM
CC(C)NCC(C(=O)N1CCN(c2ncnc3c2C(C)CC3O)CC1)c1ccc(Cl)cc1 (configuration not stated) + CC(Nc1ccc2c(c1)OCCn1cc(N3C(=O)OCC3C(F)F)nc1-2)C(N)=O; > 10 µM

INPUT: State its IC50 for this molecule: CCN1CCN(Cc2ccc(Nc3ncc(F)c(-c4cc(F)c5nc(C)n(C(C)C)c5c4)n3)nc2)CC1 + COc1c(OCCCN2CCOCC2)ccc2c3n(c(=NC(=O)c4cnc(N)nc4)nc12)CCN3
OUTPUT: > 1 µM

###

# Lookup of reported viability, T/C keyed by entry
Tested on: 996289-038-R-J1-PDC spheroid viability
Assay: Anticancer human tumor 996289-038-R-J1-PDC cell line growth inhibition [PI3K];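 also: spheroids exposed to compounds for seven days before viability read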;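 as to viability, T/C: luminescence used as a proxy for viable cell amount; percent viability relative to DMSO vehicle control as 100%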
Conditions: second compound 0.316 µM; first compound 10 µM; stronger effect = lower value; spheroids with HUVEC and MSC
From the text: Combinatorial screen of targeted agents with the PI3K inhibitors inavolisib, alpelisib, duvelisib, and copanlisib in multi-cell type tumor spheroids A high-throughput screen of multi-cell type tumor spheroids was designed to identify active combinations of targeted small molecules and PI3K pathway inhibitors. […] Compounds. […] If the clinical Cmax for an agent had not been determined, the highest concentration tested was 10 microM. […]
Answer format: numeric, % implied, no suffix.

These solved cases illustrate the format of a correct answer.
CCCS(=O)(=O)Nc1ccc(F)c(C(=O)c2c[nH]c3ncc(-c4ccc(Cl)cc4)cc23)c1F + CC(Nc1ccc2c(c1)OCCn1cc(N3C(=O)OCC3C(F)F)nc1-2)C(N)=O; 15.1
C=CC(=O)N1CCN(c2nc(=O)n(-c3c(C)ccnc3C(C)C)c3nc(-c4c(O)cccc4F)c(F)cc23)C(C)C1 (stereo not given) + CC(Nc1ccc2c(c1)OCCn1cc(N3C(=O)OCC3C(F)F)nc1-2)C(N)=O; 77.7
CC1(C)CCC(CN2CCN(c3ccc(C(=O)NS(=O)(=O)c4ccc(NCC5CCOCC5)c([N+](=O)[O-])c4)c(Oc4cnc5[nH]ccc5c4)c3)CC2)=C(c2ccc(Cl)cc2)C1 + CC(Nc1ncnc2nc[nH]c12)c1cc2cccc(Cl)c2c(=O)n1-c1ccccc1; 60.9
C[C@@H](NC(=O)c1ncnc(N)c1Cl)c1ncc(C(=O)Nc2cc(C(F)(F)F)c(Cl)cn2)s1 + Cc1nc(NC(=O)N2CCCC2C(N)=O)sc1-c1ccnc(C(C)(C)C(F)(F)F)c1; 92.4
CC1(C)CCC(CN2CCN(c3ccc(C(=O)NS(=O)(=O)c4ccc(NCC5CCOCC5)c([N+](=O)[O-])c4)c(Oc4cnc5[nH]ccc5c4)c3)CC2)=C(c2ccc(Cl)cc2)C1 + COc1c(OCCCN2CCOCC2)ccc2c3n(c(=NC(=O)c4cnc(N)nc4)nc12)CCN3; 11.3

INPUT: State its viability, T/C for this compound: Cn1ncc(Cl)c1-c1cc(C(=O)NC(CN)Cc2cccc(F)c2)sc1Cl (stereo not given) + COc1c(OCCCN2CCOCC2)ccc2c3n(c(=NC(=O)c4cnc(N)nc4)nc12)CCN3
OUTPUT: 15.1

INPUT: State its viability, T/C for this compound: CC1(C)CCC(CN2CCN(c3ccc(C(=O)NS(=O)(=O)c4ccc(NCC5CCOCC5)c([N+](=O)[O-])c4)c(Oc4cnc5[nH]ccc5c4)c3)CC2)=C(c2ccc(Cl)cc2)C1 + CC(Nc1ccc2c(c1)OCCn1cc(N3C(=O)OCC3C(F)F)nc1-2)C(N)=O
OUTPUT: 22

INPUT: State its viability, T/C for this compound: CC(C)NCC(C(=O)N1CCN(c2ncnc3c2C(C)CC3O)CC1)c1ccc(Cl)cc1 (stereo not given) + CC(Nc1ccc2c(c1)OCCn1cc(N3C(=O)OCC3C(F)F)nc1-2)C(N)=O
OUTPUT: 46

INPUT: State its viability, T/C for this compound: CC(C)NCC(C(=O)N1CCN(c2ncnc3c2C(C)CC3O)CC1)c1ccc(Cl)cc1 (stereo not given) + COc1c(OCCCN2CCOCC2)ccc2c3n(c(=NC(=O)c4cnc(N)nc4)nc12)CCN3
OUTPUT: 27.1

INPUT: State its viability, T/C for this compound: Cn1ncc(Cl)c1-c1cc(C(=O)NC(CN)Cc2cccc(F)c2)sc1Cl (stereo not given) + Cc1nc(NC(=O)N2CCCC2C(N)=O)sc1-c1ccnc(C(C)(C)C(F)(F)F)c1
OUTPUT: 31.5

###

# Lookup of reported viability, T/C keyed by entry
system: 996289-038-R-J1-PDC spheroid viability; test: Anticancer human tumor 996289-038-R-J1-PDC cell line growth inhibition [PI3K]; conditions: second compound 1 µM; first compound 3.16 µM; stronger effect = lower value; spheroids with HUVEC and MSC;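 also: spheroids exposed to compounds for seven days before viability read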;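 as to viability, T/C: luminescence used as a proxy for viable cell amount; percent viability relative to DMSO vehicle control as 100%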
Answer format: numeric, % implied, no suffix.

These solved cases illustrate the format of a correct answer.
CNC(=O)c1ccc(N2C(=S)N(c3ccc(C#N)c(C(F)(F)F)c3)C(=O)C2(C)C)cc1F + Cc1nc(NC(=O)N2CCCC2C(N)=O)sc1-c1ccnc(C(C)(C)C(F)(F)F)c1; 80.7
Cn1nccc1Nc1nccc(-c2ccn(C(CO)c3ccc(Cl)c(F)c3)c(=O)c2)n1 (stereo not drawn) + Cc1nc(NC(=O)N2CCCC2C(N)=O)sc1-c1ccnc(C(C)(C)C(F)(F)F)c1; 54.1

INPUT: Look up 996289-038-R-J1-PDC spheroid viability data: viability, T/C of CCCS(=O)(=O)Nc1ccc(F)c(C(=O)c2c[nH]c3ncc(-c4ccc(Cl)cc4)cc23)c1F + CC(Nc1ccc2c(c1)OCCn1cc(N3C(=O)OCC3C(F)F)nc1-2)C(N)=O , then report it.
OUTPUT: 44.9

INPUT: Look up 996289-038-R-J1-PDC spheroid viability data: viability, T/C of C[C@@H](NC(=O)c1ncnc(N)c1Cl)c1ncc(C(=O)Nc2cc(C(F)(F)F)c(Cl)cn2)s1 + Cc1nc(NC(=O)N2CCCC2C(N)=O)sc1-c1ccnc(C(C)(C)C(F)(F)F)c1 , then report it.
OUTPUT: 102

INPUT: Look up 996289-038-R-J1-PDC spheroid viability data: viability, T/C of CC(Cn1ccc(-c2ccc(C#N)c(Cl)c2)n1)NC(=O)c1cc(C(C)O)[nH]n1 (stereo not drawn) + COc1c(OCCCN2CCOCC2)ccc2c3n(c(=NC(=O)c4cnc(N)nc4)nc12)CCN3 , then report it.
OUTPUT: 22.1

INPUT: Look up 996289-038-R-J1-PDC spheroid viability data: viability, T/C of Cn1ncc(Cl)c1-c1cc(C(=O)NC(CN)Cc2cccc(F)c2)sc1Cl (stereo not drawn) + Cc1nc(NC(=O)N2CCCC2C(N)=O)sc1-c1ccnc(C(C)(C)C(F)(F)F)c1 , then report it.
OUTPUT: 42.4

INPUT: Look up 996289-038-R-J1-PDC spheroid viability data: viability, T/C of CC1(C)CCC(CN2CCN(c3ccc(C(=O)NS(=O)(=O)c4ccc(NCC5CCOCC5)c([N+](=O)[O-])c4)c(Oc4cnc5[nH]ccc5c4)c3)CC2)=C(c2ccc(Cl)cc2)C1 + CC(Nc1ncnc2nc[nH]c12)c1cc2cccc(Cl)c2c(=O)n1-c1ccccc1 , then report it.
OUTPUT: 124

INPUT: Look up 996289-038-R-J1-PDC spheroid viability data: viability, T/C of CC1(C)CCC(CN2CCN(c3ccc(C(=O)NS(=O)(=O)c4ccc(NCC5CCOCC5)c([N+](=O)[O-])c4)c(Oc4cnc5[nH]ccc5c4)c3)CC2)=C(c2ccc(Cl)cc2)C1 + CC(Nc1ccc2c(c1)OCCn1cc(N3C(=O)OCC3C(F)F)nc1-2)C(N)=O , then report it.
OUTPUT: 73.3
